parameter: IC50

Entry CN1CCC(n2nc(C3=C(c4c[nH]c5sccc45)C(=O)NC3=O)c3ccccc32)CC1 ; assay system PKCθ (Homo sapiens, UniProt Q04759); IC50 recorded at 100 to 500 nM

Measured IC50 for this entry CNC1CCN(c2nc(C3=C(c4c[nH]c5sccc45)C(=O)NC3=O)c3ccccc3n2)C1 (stereo not shown) on PKCθ (Homo sapiens, UniProt Q04759): 100 to 500 nM

// compound O=C1NC(=O)C(c2c[nH]c3sccc23)=C1c1nc(N2CCNCC2)nc2ccccc12 , assay PKCθ (Homo sapiens, UniProt Q04759), IC50 value: < 100 nM

Response field IC50 (PKCθ (Homo sapiens, UniProt Q04759)) for item O=C1NC(=O)C(c2c[nH]c3sccc23)=C1c1nc(N2CCn3c(nnc3C(F)(F)F)C2)nc2ccccc12 : 100 to 500 nM

# lookup: CC(C1CCN(c2nc(C3=C(c4c[nH]c5sccc45)C(=O)NC3=O)c3ccccc3n2)CC1)N(C)C (stereo not shown) on PKCθ (Homo sapiens, UniProt Q04759), IC50 = 100 to 500 nM

Note to self: IC50 of O=C1NC(=O)C(c2c[nH]c3ccsc23)=C1c1nc(N2CCNCC2)nc2ccccc12 with PKCθ (Homo sapiens, UniProt Q04759) was < 100 nM

Entry CNCC1CCN(c2nc(C3=C(c4c[nH]c5sccc45)C(=O)NC3=O)c3ccccc3n2)CC1 , tested on PKCθ (Homo sapiens, UniProt Q04759), has a reported IC50 of 100 to 500 nM

The compound CN1CC[C@H](Cn2nc(C3=C(c4c[nH]c5sccc45)C(=O)NC3=O)c3ccccc32)[C@H](F)C1 (relative stereo) on PKCθ (Homo sapiens, UniProt Q04759): IC50 was < 100 nM

Value sought: IC50, system PKCθ (Homo sapiens, UniProt Q04759), item NCC1CCN(c2nc(C3=C(c4c[nH]c5ccsc45)C(=O)NC3=O)c3ccccc3n2)CC1 . Result: 100 to 500 nM

PKCθ (Homo sapiens, UniProt Q04759) data for CN1CCC(Cn2cc(C3=C(c4c[nH]c5ccccc45)C(=O)NC3=O)c3ccsc32)CC1 ; its IC50: < 100 nM

Observed IC50 on PKCθ (Homo sapiens, UniProt Q04759), entry CN1CCC(C)(Cn2nc(C3=C(c4c[nH]c5sccc45)C(=O)NC3=O)c3ccccc32)CC1 , equals 100 to 500 nM

Kindly note: PKCθ (Homo sapiens, UniProt Q04759), CN1CCN(c2nc(C3=C(c4c[nH]c5ccsc45)C(=O)NC3=O)c3ccc(F)cc3n2)CC1 , IC50 value reported: < 100 nM

Field IC50 (PKCθ (Homo sapiens, UniProt Q04759)), entry NC1(CCO)CCN(c2nc(C3=C(c4c[nH]c5sccc45)C(=O)NC3=O)c3ccccc3n2)CC1 : < 100 nM

Hey, PKCθ (Homo sapiens, UniProt Q04759) data for COCCN1CCC(Cn2nc(C3=C(c4c[nH]c5sccc45)C(=O)NC3=O)c3ccccc32)CC1 : IC50 came out at 100 to 500 nM

The compound O=C1NC(=O)C(c2c[nH]c3ccsc23)=C1c1nc(N2CCC(N3CCOCC3)CC2)nc2ccccc12 , tested on PKCθ (Homo sapiens, UniProt Q04759), showed IC50 of 100 to 500 nM

The measured IC50 that Cc1cccc2c(C3=C(c4c[nH]c5sccc45)C(=O)NC3=O)nc(N3CCN(C)CC3)nc12 showed for PKCθ (Homo sapiens, UniProt Q04759) is 500 to 1000 nM
